Tested on: Tat-TAR interaction (TAR with hybrid CycT1-Tat protein)
Test: Electrophoretic mobility shift assay (EMSA, gel shift)
Format: binding, HIV-1
Details: in vitro
measured-quantity: binding to the TAR region

CN1CCN(CCCN2c3ccccc3Sc3ccc(Cl)cc32)CC1 [prochlorperazine]	bind
CN(C)CCCN1c2ccccc2Sc2ccc(Cl)cc21 [chlorpromazine]	bind
CC(=O)c1ccc2c(c1)N(CCCN(C)C)c1ccccc1S2 [(1)]	bind

###

Test system: Ribosomal A-site RNA
Test: Saturation transfer difference (STD) NMR binding experiment
Conditions: Ribosomal A-site RNA; 0.4-0.6 mM drug
measured-quantity: STD signals @ 0.4-0.6 mM drug

CN(C)CCCN1c2ccccc2Sc2ccccc21 [(5)]	yes
CN(C)CCCN1c2ccccc2Sc2ccccc21 [(4)]	yes
CN(C)CCCN1c2ccccc2Sc2ccccc21 [(2)]	yes
CN(C)CCCN1c2ccccc2Sc2ccccc21 [(3)]	no
CN(C)CCCN1c2ccccc2Sc2ccccc21 [(6)]	no

[in] Give the measured STD signals @ 0.4-0.6 mM drug for CC(=O)c1ccc2c(c1)N(CCCN(C)C)c1ccccc1S2
[out] yes

Values compiled from patent US20030229082A1.
